Biological target: Signal peptidase IB (Staphylococcus aureus, UniProt P0A070)
Sequence (P0A070 whole entry): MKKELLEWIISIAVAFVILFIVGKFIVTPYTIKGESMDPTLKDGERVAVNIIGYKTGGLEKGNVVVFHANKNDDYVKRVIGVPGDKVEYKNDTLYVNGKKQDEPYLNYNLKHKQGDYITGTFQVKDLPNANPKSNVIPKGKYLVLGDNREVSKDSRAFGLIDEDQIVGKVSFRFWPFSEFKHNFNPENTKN
Quick list: IC50 per entry.
MEASUREMENT KIND: IC50 (µM)

{"GIVEN SMILES": "CCCCCCCCCCCCCCCC(=O)N(C)[C@H](CO)C(=O)N[C@H](C)C(=O)NCC(=O)N(C)[C@@H]1C(=O)N[C@@H](C)C(=O)N[C@H](C(=O)NCP(=O)(Oc2ccccc2)Oc2ccccc2)Cc2ccc(O)c(c2)-c2cc1ccc2O", "MEASUREMENT KIND": "IC50", "OPERATOR": ">", "MEASURED NUMBER": 17.8}
{"GIVEN SMILES": "CCCCCCCCCCCCCCCC(=O)N(C)[C@H](CO)C(=O)N[C@H](C)C(=O)NCC(=O)N(C)[C@@H]1C(=O)N[C@@H](C)C(=O)N[C@H](C(=O)NCC=O)Cc2ccc(O)c(c2)-c2cc1ccc2O", "MEASUREMENT KIND": "IC50", "OPERATOR": "=", "MEASURED NUMBER": 0.0531}
{"GIVEN SMILES": "CCCCCCCCCCCCCCCC(=O)N(C)[C@H](CO)C(=O)N[C@H](C)C(=O)NCC(=O)N(C)[C@@H]1C(=O)N[C@@H](C)C(=O)N[C@H](CC(=O)NCC=O)Cc2ccc(O)c(c2)-c2cc1ccc2O", "MEASUREMENT KIND": "IC50", "OPERATOR": ">", "MEASURED NUMBER": 21.4}
{"GIVEN SMILES": "CCCCCCCCCCCCCCCC(=O)N(C)[C@H](CO)C(=O)N[C@H](C)C(=O)NCC(=O)N(C)[C@@H]1C(=O)N[C@@H](C)C(=O)N[C@H](C(=O)O)Cc2ccc(O)c(c2)-c2cc1ccc2OCCN", "MEASUREMENT KIND": "IC50", "OPERATOR": "=", "MEASURED NUMBER": 3.46}
{"GIVEN SMILES": "CCCCCCCCCCCCCCCC(=O)N(C)[C@H](CO)C(=O)N[C@H](C)C(=O)NCC(=O)N(C)[C@@H]1C(=O)N[C@@H](C)C(=O)N[C@H](C(=O)O)Cc2ccc(O)c(c2)-c2cc1ccc2O", "MEASUREMENT KIND": "IC50", "OPERATOR": "=", "MEASURED NUMBER": 1.8}

###

Measured IC50 (Signal peptidase IB (Staphylococcus aureus, UniProt P0A070))

{"GIVEN SMILES": "CCCCCCCCCCCCCCCC(=O)N(C)[C@H](CO)C(=O)N[C@H](C)C(=O)NCC(=O)N(C)[C@@H]1C(=O)N[C@@H](C)C(=O)N[C@H](C(=O)NCP(=O)(O)O)Cc2ccc(O)c(c2)-c2cc1ccc2O", "IC50 [µM]": 16.4}
{"GIVEN SMILES": "CCCCCCCCCCCCCCCC(=O)N(C)[C@H](CO)C(=O)N[C@H](C)C(=O)NCC(=O)N(C)[C@@H]1C(=O)N[C@@H](C)C(=O)N[C@H](C(=O)O)Cc2ccc(O)c(c2)-c2cc1ccc2OCCO", "IC50 [µM]": 4.22}
{"GIVEN SMILES": "CCCCCCCCCCCCCCCC(=O)N(C)[C@H](CO)C(=O)N[C@H](C)C(=O)NCC(=O)N(C)[C@@H]1C(=O)N[C@@H](C)C(=O)N[C@H](C(=O)NCC=O)Cc2ccc(O)c(c2)-c2cc1ccc2OCCN", "IC50 [µM]": 0.332}

Origin of measurements: ChEMBL document CHEMBL2429855
